- Test target: S2-receptor (Rattus norvegicus)
- Construct: Caudal arteries from fasted male rats; from tissue; host or cells: rat caudal artery, helical strips
- Protocol text: antagonistic activity on the effect of serotonin on the caudal artery of the rat (caudal artery test)
- Settings: rat caudal artery strips; serotonin 40 ng/ml; 5 minutes after adding the drug; read-out: ED50 (minimal concentration which reduces the amplitude of the serotonin-induced contraction to at least 50% of its normal value) (converted)
Readings of IC50 for the listed compounds
# unit: pM | format: bare number

Sample records with IC50:
Cc1ccc(C(=C2CCN(CCc3c(C)nc4scc(C)n4c3=O)CC2)c2ccccc2)cc1 [Compound 129] | 0.49
Cc1nc2sccn2c(=O)c1CCN1CCC(=C(c2ccccc2)c2ccc(O)cc2)CC1 [Compound 80] | 2.84
Cc1nc2ccccn2c(=O)c1CCN1CCC(=C(c2ccc(F)cc2)c2ccc(Br)cc2)CC1 [Compound 45] | 2.44
Cc1nc2ccccn2c(=O)c1CCN1CCC(=C(c2ccc(F)cc2)c2ccc(F)cc2)CC1 [Compound 58] | 1.34

// sample Cc1nc2n(c(=O)c1CCN1CCC(=C(c3ccc(F)cc3)c3ccc(F)cc3)CC1)CCCS2 [Compound 29] , its IC50 was 0.648

Just so you know, measured IC50 for Cc1nc2sccn2c(=O)c1CCN1CCC(=C(c2ccc(F)cc2)c2cccnc2)CC1 [Compound 53] came out at 2.82

The reported IC50 of the compound Cc1nc2n(c(=O)c1CCN1CCC(=C(c3ccc(F)cc3)c3cccc(F)c3)CC1)CCS2 [Compound 28] was 1.17

* * *

- Test target: S2-receptor (Rattus norvegicus, UniProt P14842)
- Construct: Caudal arteries from fasted male rats; from tissue; host or cells: rat caudal artery, helical strips
- Sequence (P14842 whole entry): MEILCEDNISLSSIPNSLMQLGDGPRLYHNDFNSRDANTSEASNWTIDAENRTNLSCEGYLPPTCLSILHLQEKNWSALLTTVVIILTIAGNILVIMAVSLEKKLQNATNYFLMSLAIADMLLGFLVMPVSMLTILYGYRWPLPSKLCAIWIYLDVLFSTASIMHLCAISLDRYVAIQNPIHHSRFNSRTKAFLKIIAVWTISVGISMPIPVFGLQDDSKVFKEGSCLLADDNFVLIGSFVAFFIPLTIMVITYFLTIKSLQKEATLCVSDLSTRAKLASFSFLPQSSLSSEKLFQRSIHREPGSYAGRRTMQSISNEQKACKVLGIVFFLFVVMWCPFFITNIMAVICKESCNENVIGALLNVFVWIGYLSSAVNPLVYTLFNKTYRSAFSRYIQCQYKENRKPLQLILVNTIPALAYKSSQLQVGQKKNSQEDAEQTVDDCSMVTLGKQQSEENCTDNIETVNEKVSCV
- Protocol text: antagonistic activity on the effect of serotonin on the caudal artery of the rat (caudal artery test)
- Settings: rat caudal artery strips; serotonin 40 ng/ml; 5 minutes after adding the drug; read-out: ED50 (minimal concentration which reduces the amplitude of the serotonin-induced contraction to at least 50% of its normal value) (converted)
Where a name gives a salt, the structure may show the parent alone.
I'd appreciate it if you marked entries y when IC50 is lower than 1 pM and n when it is not.

Study these solved cases before continuing.
Cc1ccccc1C(=C1CCN(CCc2c(C)nc3n(c2=O)CCCC3)CC1)c1ccccc1 [Compound 92] | y
Cc1ccc(C(=C2CCN(CCc3c(C)nc4n(c3=O)CCCS4)CC2)c2ccccc2)cc1 [Compound 128] | y
Cc1ccc(C(=C2CCN(CCc3c(C)nc4n(c3=O)CCCS4)CC2)c2ccc(F)cc2)cc1 [Compound 40] | n
Cc1nc2sccn2c(=O)c1CCN1CCC(=C(c2ccc(O)cc2)c2ccc(F)cc2)CC1 [Compound 24] | y
Cc1nc2n(c(=O)c1CCN1CCC(=C(c3ccc(F)cc3)c3ccc(F)cc3)CC1)CCCC2 [Compound 3] | n

# input Dear reviewer, please state whether Cc1nc2n(c(=O)c1CCN1CCC(=C(c3ccccc3)c3ccc(F)cc3)CC1)CCCS2 [Compound 115] has IC50 strictly beneath 1 pM.
# output n

# input Please let me know if Cc1nc2ccccn2c(=O)c1CCN1CCC(=C(c2ccc(F)cc2)c2ccc(F)cc2)C(O)C1 (stereo not shown) [Compound 61] shows IC50 below 1 pM.
# output n

# input Is the reported IC50 for Cc1nc2sccn2c(=O)c1CCN1CCC(=C(c2ccccc2)c2ccc(F)cc2)CC1 [Compound 139, monohydrochloride] strictly below 1 pM?
# output y

# input Take the compound COc1ccc(C(=C2CCN(CCc3c(C)nc4scc(C)n4c3=O)CC2)c2ccc(F)cc2)cc1 [Compound 142] and say whether its IC50 is less than 1 pM.
# output n

# input Say whether its IC50 is strictly beneath 1 pM. Entry: Cc1nc2scc(C)n2c(=O)c1CCN1CCC(=C(c2ccc(F)cc2)c2cccc(Cl)c2)CC1 [Compound 7]
# output n

# input Is IC50 of COc1ccc(C(=C2CCN(CCc3c(C)nc4ccccn4c3=O)CC2)c2ccc(F)cc2)cc1 [Compound 143] strictly below 1 pM?
# output n

# input Bench note: check whether Cc1nc2sccn2c(=O)c1CCN1CCC(=C(c2ccc(F)cc2)c2ccc(Br)cc2)CC1 [Compound 34] shows IC50 below 1 pM
# output n

# input Consider the compound Cc1nc2scc(C)n2c(=O)c1CCN1CCC(=C(c2ccc(F)cc2)c2ccc(F)cc2)CC1 [Compound 112] . Is its IC50 strictly less than 1 pM?
# output y

# input Lab note: IC50 threshold 1 pM. Does this compound come in strictly under it? Cc1nc2n(c(=O)c1CCN1CCC(=C(c3ccc(F)cc3)c3cccc(C(F)(F)F)c3)CC1)CCCS2 [Compound 120]
# output n

# input Decide: IC50 of Cc1nc2sccn2c(=O)c1CCN1CCC(=C(c2ccc(Cl)cc2)c2ccc(Cl)cc2)CC1 [Compound 48] strictly below 1 pM?
# output n
